target: μ opiate receptor (MOR) (Rattus norvegicus); construct: from tissue; host or cells: striatal tissue (membrane preparation); assay: MOR agonist activity, [35S]GTPγS binding assay using striatal membranes; type: biochemical; details: 0.1 μM compound, striatal membranes
MEASUREMENT_TYPE: [35S]GTPγS binding to Gαo, FLNA-binding compound as agonist 0.1 μM (%)

# COMPOUND, NUMBER
rows = [
    ("CC1CCC(C(C)C)C(OCC(O)CN2CCN(CCN3CCCCC3)CC2)C1 (stereo not drawn)", 178.2),
    ("CC1CCC(C(C)C)C(OCC(O)CN2CCN(Cc3ccccc3)CC2)C1 (stereo not drawn)", 254.3),
    ("CC1CCC(C(C)C)C(OCC(O)CN2CCC(=O)CC2)C1 (stereo not drawn)", 99.7),
    ("CC1CCC(C(C)C)C(OCC(O)CN2CCCN(C)CC2)C1 (stereo not drawn)", 277.2),
    ("CC1CCC(C(C)C)C(OCC(O)CN2CCCC2)C1 (stereo not drawn)", 94.3),
    ("CC1CCC(C(C)C)C(OCC(O)Cn2cccc2)C1 (stereo not drawn)", 176.7),
    ("CC1CCC(C(C)C)C(OCC(O)CN2CCN(CCCN3CCOCC3)CC2)C1 (stereo not drawn)", 140.7),
    ("CCN(CC)CC(O)COC1CC(C)CCC1C(C)C (stereo not drawn)", 226.9),
    ("CC1CCC(C(C)C)C(OCC(O)CN2CCCCC2C)C1 (stereo not drawn)", 102.0),
]

====

Each item that follows carries a reported inhibition at 1 µM.
target: Bn-VAKGL pentapeptide of filamin A (FLNA) (Homo sapiens); experiment: FITC-NLX-based FLNA screening assay (FLNA peptide binding assay); conditions: read-out: Percent inhibition of FITC-NLX binding, 1 μM, 1 μM compound, 10 nM FITC-NLX
MEASUREMENT_TYPE: inhibition at 1 µM (%)

# MOLECULE, TARGET_ENTITY, NUMBER
data = [
    ("COc1ccc(OCC(O)CN2CCCc3ccccc32)cc1 (centres unmarked)", "Bn-VAKGL pentapeptide of filamin A (FLNA) (Homo sapiens)", 44.3),
    ("CC1CCC(C(C)C)C(OCC(O)CN2CCOc3ccccc32)C1 (centres unmarked)", "Bn-VAKGL pentapeptide of filamin A (FLNA) (Homo sapiens)", 53.7),
    ("OC(COc1ccccc1Br)CN1CCN(CCN2CCOCC2)CC1 (centres unmarked)", "Bn-VAKGL pentapeptide of filamin A (FLNA) (Homo sapiens)", 53.6),
    ("COc1ccc(OCC(O)CN2CCc3cc4c(c(OC)c3C2)OCO4)cc1 (centres unmarked)", "Bn-VAKGL pentapeptide of filamin A (FLNA) (Homo sapiens)", 41.7),
    ("COc1ccc(OCC(O)CN2CCC(=O)CC2)cc1 (centres unmarked)", "Bn-VAKGL pentapeptide of filamin A (FLNA) (Homo sapiens)", 53.9),
]

====

molecular target: μ opiate receptor (MOR) (Rattus norvegicus, UniProt P33535); construct: from tissue; host or cells: striatal tissue (membrane preparation); experiment: MOR agonist activity, [35S]GTPγS binding assay using striatal membranes; format: biochemical; conditions: 1 μM compound, striatal membranes
Sequence (P33535 whole entry): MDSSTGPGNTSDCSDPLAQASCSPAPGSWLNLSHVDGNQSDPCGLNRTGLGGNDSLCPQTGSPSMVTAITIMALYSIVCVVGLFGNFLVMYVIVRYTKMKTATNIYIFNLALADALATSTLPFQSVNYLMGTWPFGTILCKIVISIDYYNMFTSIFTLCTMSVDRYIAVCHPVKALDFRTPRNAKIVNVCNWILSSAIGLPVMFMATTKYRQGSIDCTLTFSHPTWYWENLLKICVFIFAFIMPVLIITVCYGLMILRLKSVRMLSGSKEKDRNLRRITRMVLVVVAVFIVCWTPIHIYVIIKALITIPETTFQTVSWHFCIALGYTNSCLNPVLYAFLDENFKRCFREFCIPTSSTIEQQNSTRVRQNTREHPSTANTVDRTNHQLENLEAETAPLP
[35S]GTPγS binding to Gαo, FLNA-binding compound as agonist 1 μM vs 200%: less than gives class 1; not less than gives class 0.

# COMPOUND, CLASS_NAME
records = [
    ("CC1CCC(C(C)C)C(OCC(O)CN2CCCCC2)C1 (stereo not drawn)", "class 0"),
    ("OC(COc1ccc(Br)c(F)c1)CN1CCN(CCN2CCOCC2)CC1 (stereo not drawn)", "class 0"),
    ("CC1CCC(C(C)C)C(OCC(O)CN2CCOCC2)C1 (stereo not drawn)", "class 1"),
    ("CC1CCC(C(C)C)C(OCC(O)CN2CCCC2)C1 (stereo not drawn)", "class 1"),
    ("CC1CCC(C(C)C)C(OCC(O)CN2CCC(=O)C(C)C2)C1 (stereo not drawn)", "class 1"),
    ("CC1CCC(C(C)C)C(OCC(O)CN(C(C)C)C(C)C)C1 (stereo not drawn)", "class 0"),
    ("CC1CN(CC(O)COc2ccc(Cl)cc2)CC(C)O1 (stereo not drawn)", "class 0"),
    ("CC1CCC(C(C)C)C(OCC(O)CN2CC(C)CC(C)C2)C1 (stereo not drawn)", "class 0"),
    ("COc1ccc(OCC(O)CN2CCOc3ccccc32)cc1 (stereo not drawn)", "class 1"),
]

====

target: μ opiate receptor (MOR) (Rattus norvegicus); construct: from tissue; host or cells: striatal tissue (membrane preparation); assay: MOR agonist activity, [35S]GTPγS binding assay using striatal membranes; assay type: biochemical; settings: 0.1 μM compound, striatal membranes
MEASUREMENT_TYPE: [35S]GTPγS binding to Gαo, FLNA-binding compound as agonist 0.1 μM (%)

# COMPOUND, NUMBER
records = [
    ("COc1ccc(OCC(O)CN2CC(C)OC(C)C2)cc1 (centres unmarked)", 233.7),
    ("COc1ccc(N2CCN(CC(O)COC3CC(C)CCC3C(C)C)CC2)c(OC)c1 (centres unmarked)", 149.3),
    ("Cc1ccc(C(C)C)c(OCC(O)CN2CC(C)OC(C)C2)c1 (centres unmarked)", 143.6),
    ("CC1CCC(C(C)C)C(OCC(O)CN2CCCCCC2)C1 (centres unmarked)", 102.1),
    ("CC1CCC(C(C)C)C(OCC(O)CN2CCN(CCc3ccccc3)CC2)C1 (centres unmarked)", 168.6),
    ("CC1CCC(C(C)C)C(OCC(O)CN2CCN(C)CC2)C1 (centres unmarked)", 70.2),
    ("COc1ccc(OCC(O)CN2CCc3cc4c(c(OC)c3C2)OCO4)cc1 (centres unmarked)", 128.6),
    ("CC1CCC(C(C)C)C(OCC(O)CN2CCOCC2)C1 (centres unmarked)", 97.4),
]

====

target: μ opiate receptor (MOR) (Rattus norvegicus, UniProt P33535); construct: from tissue; host or cells: striatal tissue (membrane preparation); test: MOR agonist activity, [35S]GTPγS binding assay using striatal membranes; format: biochemical; settings: 1 μM compound + 1 μM β-funaltrexamine
Rule: [35S]GTPγS binding to Gαo, FLNA-binding compound as agonist 1 μM + BFNA under 60% gives not met, otherwise met.

# COMPOUND, TARGET_ENTITY, CLASS_NAME
measured = [
    ("OC(CN1CCc2ccccc2C1)OCc1ccc(Br)c(F)c1 (stereo not drawn)", "μ opiate receptor (MOR) (Rattus norvegicus, UniProt P33535)", "not met"),
    ("CC1CCC(C(C)C)C(OCC(O)CN2CC(C)OC(C)C2)C1 (stereo not drawn)", "μ opiate receptor (MOR) (Rattus norvegicus, UniProt P33535)", "met"),
    ("CC1CCC(C(C)C)C(OCC(O)CN2CCCCC2=O)C1 (stereo not drawn)", "μ opiate receptor (MOR) (Rattus norvegicus, UniProt P33535)", "met"),
    ("CC1CN(CC(O)COc2ccccc2Br)CC(C)O1 (stereo not drawn)", "μ opiate receptor (MOR) (Rattus norvegicus, UniProt P33535)", "met"),
    ("COc1ccc(OCC(O)CN2CC(C)OC(C)C2)cc1 (stereo not drawn)", "μ opiate receptor (MOR) (Rattus norvegicus, UniProt P33535)", "met"),
    ("CC1CCC(C(C)C)C(OCC(O)CN2CCN(CCN3CCOCC3)CC2)C1 (stereo not drawn)", "μ opiate receptor (MOR) (Rattus norvegicus, UniProt P33535)", "not met"),
    ("CC1CCC(C(C)C)C(OCC(O)CN2CCC2)C1 (stereo not drawn)", "μ opiate receptor (MOR) (Rattus norvegicus, UniProt P33535)", "met"),
    ("CC1CCC(C(C)C)C(OCC(O)CN2CCC(=O)C(C)C2)C1 (stereo not drawn)", "μ opiate receptor (MOR) (Rattus norvegicus, UniProt P33535)", "not met"),
    ("COc1ccc(OCC(O)CN2CCN(Cc3ccccc3)CC2)cc1 (stereo not drawn)", "μ opiate receptor (MOR) (Rattus norvegicus, UniProt P33535)", "met"),
]

====

target: μ opiate receptor (MOR) (Rattus norvegicus, UniProt P33535); construct: from tissue; host or cells: striatal tissue (membrane preparation); experiment: MOR agonist activity, [35S]GTPγS binding assay using striatal membranes; type: biochemical; settings: 0.1 μM compound, striatal membranes
Known [35S]GTPγS binding to Gαo, FLNA-binding compound as agonist 0.1 μM of a selection of compounds
MEASUREMENT_TYPE: [35S]GTPγS binding to Gαo, FLNA-binding compound as agonist 0.1 μM (%)

# COMPOUND, MEASUREMENT_UNITS, NUMBER
data = [
    ("CC1CCCC(OCC(O)CN2CC(C)OC(C)C2)C1 (centres unmarked) [Compound A0021]", "%", 133.3),
    ("CN(C)c1cccc(OCC(O)CN2CCc3ccccc3C2)c1 (centres unmarked) [Compound A0050]", "%", 151.0),
    ("CC1CCC(C(C)C)C(OCC(O)CN2CCCCC2=O)C1 (centres unmarked) [Compound A0036]", "%", 144.1),
    ("CC1CCC(C(C)C)C(OCC(O)CN2CCSCC2)C1 (centres unmarked) [Compound A0003]", "%", 176.8),
    ("COc1ccc(OCC(O)CN2CCCc3ccccc32)cc1 (centres unmarked) [Compound A0067]", "%", 170.8),
    ("CC1CCC(C(C)C)C(OCC(O)CN2CCN(CCN3CCOCC3)CC2)C1 (centres unmarked) [Compound A0011]", "%", 236.3),
    ("CC1CN(CC(O)COc2cccc(N(C)C)c2)CC(C)O1 (centres unmarked) [Compound A0042]", "%", 147.5),
    ("CC1CN(CC(O)COc2cc(F)cc(F)c2)CC(C)O1 (centres unmarked) [Compound A0046]", "%", 257.5),
    ("CC1CCC(C(C)C)C(OCC(O)CN(C(C)C)C(C)C)C1 (centres unmarked) [Compound A0037]", "%", 177.9),
    ("CC1CN(CC(O)COc2ccc(Br)c(F)c2)CC(C)O1 (centres unmarked) [Compound A0041]", "%", 212.7),
    ("COc1ccc(OCC(O)CN2CCc3ccccc3C2)cc1 (centres unmarked) [Compound A0053]", "%", 78.5),
    ("CC1CCC(C(C)C)C(OCC(O)CN2CCCCC2)C1 (centres unmarked) [Compound A0005]", "%", 179.7),
    ("CC1CCC(C(C)C)C(OCC(O)CN2CCCc3ccccc32)C1 (centres unmarked) [Compound A0068]", "%", 73.9),
    ("CC1CCN(CC(O)COC2CC(C)CCC2C(C)C)CC1 (centres unmarked) [Compound A0006]", "%", 170.0),
    ("OC(COc1ccc(Br)c(F)c1)CN1CCCCC1 (centres unmarked) [Compound A0058]", "%", 70.7),
    ("OC(COc1ccc(Br)c(F)c1)CN1CCN(CCN2CCOCC2)CC1 (centres unmarked) [Compound A0063]", "%", 122.8),
    ("OC(CN1CCc2ccccc2C1)OCc1ccc(Br)c(F)c1 (centres unmarked) [Compound A0057]", "%", 124.2),
    ("CC1CCC(C(C)C)C(OCC(O)CN2CCCC2=O)C1 (centres unmarked) [Compound A0035]", "%", 120.6),
    ("OC(COc1ccc(Br)c(F)c1)CN1CCSCC1 (centres unmarked) [Compound A0059]", "%", 99.2),
    ("OC(COc1cccc(F)c1)CN1CCc2ccccc2C1 (centres unmarked) [Compound A0055]", "%", 89.8),
]

Data credit: patent US20100279997A1
